Growth Rate by entry:
- Test system: HEK-293T
- Procedure summary: Incucyte cell viability with HEK293T; also: unitless GR value; below 1 slowed growth and below 0 cell loss
- Assay type: toxicity, cell-based
- Condition summary: human, 18 h, 10 µM, compound concentration 10 uM, replicate number 2
Observable: Growth Rate

compound="CCN1CCN(Cc2ccc(NC(=O)Nc3ccc(Oc4cc(NC)ncn4)cc3)cc2C(F)(F)F)CC1 [AST-487]" measured_result=-0.29
compound=CN[C@@H]1CC[C@@H](c2ccc(Cl)c(Cl)c2)c2ccccc21.Cl measured_result=-0.04
compound="CC(F)(F)CN1C(=O)c2[nH]nc(-c3cccc4[nH]c(=O)oc34)c2C1c1ccc(Oc2cc(C(F)(F)F)cc(C(F)(F)F)c2)cc1 (configuration not stated)" measured_result=0.68
compound=COc1cc(-c2nn([C@H]3CC[C@H](N4CCN(C(C)=O)CC4)CC3)c3ncnc(N)c23)ccc1NC(=O)c1cc2ccccc2n1C measured_result=0.59
compound="C[C@@H](Oc1cc(-n2cnc3ccc(OC4CCN(C)CC4)cc32)sc1C(N)=O)c1ccccc1Cl [GSK-579289A]" measured_result=1
compound="CC(C)(C#Cc1ccc(NC(=O)COc2ccccc2C(=O)c2ccccc2)c(Cl)c1)C(=O)O [BI 2439]" measured_result=0.62
compound=COc1ccc(C(F)(F)F)cc1NC(=O)Nc1ccc(Oc2cc(C)nc(N)n2)c2ccccc12 measured_result=0.87
compound=C=CC(=O)Nc1ccc(C(=O)Nc2n[nH]c3c2CN(C(=O)N[C@H](CN(C)C)c2ccccc2)C3(C)C)cc1 measured_result=-0.27
compound="CC(C)(C)c1ccc2c(c1)CC[C@H]2NC(=O)Nc1cccc2[nH]ncc12 [ABT-102]" measured_result=0.54
compound=C[C@]12CC[C@@H]3c4ccc(C(N)=O)cc4CC[C@H]3[C@@H]1CC=C2c1cncc(F)c1 measured_result=0.29
compound=O=C1NC(=Nc2c(Cl)cccc2Cl)S/C1=C\c1ccc2nccnc2c1 measured_result=0.35
compound="Cc1[nH]nc2ccc(-c3cncc(OCC(N)Cc4ccccc4)c3)cc12 (configuration not stated)" measured_result=0.44
compound=Oc1c(CN2CCCC2)cc(COCc2ccccc2)c2cccnc12 measured_result=-0.21
compound=NC(=O)OC[C@H](NC(=O)Cn1nc(-c2ccc(Cl)cc2)n(C[C@H](O)C(F)(F)F)c1=O)c1cccc(C(F)(F)F)c1 measured_result=0.83
compound=CC(=O)N(CCN(C)C)c1ccc(N/C(=C2\C(=O)Nc3cc(Cl)ccc32)c2ccccc2)cn1 measured_result=-0.55
compound="CC(=O)Nc1nc(CN2CCC[C@H](Cc3cc(C)nc(C)c3)C2)cs1 [JNJ-73924149]" measured_result=0.95
compound="Oc1cc2c(cc1O)CN(C(=S)NCCc1ccc(Cl)cc1)CCC2 [CAPSAZEPINE]" measured_result=0.51

====

- Test system: HEK-293T
- Procedure summary: Incucyte cell viability with HEK293T; also: unitless GR value; below 1 slowed growth and below 0 cell loss
- Format: toxicity, cell-based
- Condition summary: human, 12 h, 10 µM, compound concentration 10 uM, replicate number 1
Observable: Growth Rate

compound="CCn1c(-c2nonc2N)nc2c(C#CC(C)(C)O)ncc(OCC3CCCNC3)c21 (stereo not given)" measured_result=-0.65
compound=CCOC(=O)c1cnn(-c2ccc(NC(=O)C(Cl)=C(Cl)Cl)cc2)c1C(F)(F)F measured_result=-0.5
compound="C=CC[C@@H]1/C=C(\\C)C[C@H](C)C[C@H](OC)[C@H]2O[C@@](O)(C(=O)C(=O)N3CCCC[C@H]3C(=O)O[C@H](/C(C)=C/[C@@H]3CC[C@@H](O)[C@H](OC)C3)[C@H](C)[C@@H](O)CC1=O)[C@H](C)C[C@@H]2OC.O [TACROLIMUS]" measured_result=0.41
compound=FC(F)(F)c1ccccc1-c1cc(C(F)(F)F)c2[nH]c(C3=NOC4(CCCCC4)C3)nc2c1 measured_result=-0.3
compound=CN[C@@H]1CC[C@@H](c2ccc(Cl)c(Cl)c2)c2ccccc21.Cl measured_result=0.01
compound=N#Cc1ccnc(Nc2cc(C3CCN(C4COC4)CC3)cc(N3CCC(F)(F)C3)n2)c1 measured_result=0.85
compound=CCc1ccc(-c2ncn(CC3(F)CCN(C)CC3)c2-c2ccnc3[nH]ccc23)nc1 measured_result=0.43
compound=CC1(C)CCN(C(=O)C2CN(c3c4c(nc5ccnn35)CCNCC4)C2)C1.O=C(O)C(F)(F)F measured_result=0.45
compound="CNC(=O)c1cccc(-c2ccc3c(N4CCOC[C@@H]4C)nc(N4CCOC[C@@H]4C)nc3n2)c1 [VISTUSERTIB]" measured_result=-0.41
compound=Cn1cc(-c2ccc3occ(-c4cccc(-c5ccncc5)c4)c3n2)cn1 measured_result=-0.46
compound=CCOC(=O)/N=C(\N)c1ccc(OCc2cccc(COc3ccc(C(C)(C)c4ccc(OC(=O)OCC)cc4)cc3)c2)cc1 measured_result=0.04
compound=NC(=O)c1cc(-c2ccnc(NC3CCCCC3)c2)nc(N2CCNCC2)c1 measured_result=0.54
compound=N=C(N)Nc1cc(C2CCNCC2)cc(C(F)(F)F)c1.O=C(O)C(F)(F)F.O=C(O)C(F)(F)F measured_result=0.91
compound="O=C(Nc1cc(C(F)(F)F)cc(C(F)(F)F)c1)c1cc(Cl)ccc1O [IMD-0354]" measured_result=0.81
compound=Cn1cc(-c2ccc(-c3cncc(Cl)c3N3CCC4(CCNC4=O)CC3)cc2)cn1 measured_result=0.3
compound=Cc1cc(C)cc(C(=O)NOCCCCCC(=O)NO)c1 measured_result=0.34
compound=Cc1cc2nc(N3CCC(C(=O)NC4CCCC4)CC3)n(C(C)C)c2cc1C measured_result=0.77
compound=COC1(C#Cc2ccc(Cl)c(-c3ncc4c(n3)-c3sc(NC(C)=O)nc3CC4)c2)CCN(C)CC1 measured_result=-0.29
compound="C=CC(=O)Nc1cc(-c2nn(C3CCC(N4CCN(C(C)=O)CC4)CC3)c3ncnc(N)c23)ccc1Oc1ccccc1 (stereo not given)" measured_result=-0.48
compound="N[C@H](C(=O)O)[C@@H]1CC(Cl)=NO1 [ACIVICIN]" measured_result=0.69
compound=O=C(O)C[C@H]1CCn2c1c(Sc1ccc(Cl)cc1)c1ccc(F)cc12 measured_result=0.96
compound="Cn1c(=O)n(CCCO)c(=O)c2c1nc(Oc1cccc(OC(F)(F)F)c1)n2Cc1ccc(Cl)cc1 [ZERENCOTREP]" measured_result=0.92
compound="Cc1cc(C2CCCNC2)ccc1Nc1ncc(Br)c(NCc2cccc3c2C(C)(C)C(=O)N3)n1 (stereo not given)" measured_result=0.08
compound="CC(C)(O)[C@H]1CC[C@H](Nc2ccc3ncc(-c4cccc(C(F)(F)F)c4)n3n2)CC1 [NUVISERTIB]" measured_result=-0.5
compound="O=C(NC1CCNCC1)c1n[nH]cc1NC(=O)c1c(Cl)cccc1Cl [AT-7519]" measured_result=-0.27
compound=Cc1cc(=O)oc2cc(NC(=O)[C@H](Cc3ccc(I)cc3)NC(=O)[C@H]3N[C@@H]4CC[C@H]3C4)ccc12.O=C(O)C(F)(F)F measured_result=0.55
compound="CNCc1ccc(-c2cc(-c3nc(-c4ccc(S(=O)(=O)C(C)C)cc4)cnc3N)on2)cc1 [BERZOSERTIB]" measured_result=-0.49
compound=CCN1CCN(Cc2ccc(C(=O)Nc3ccc(C)c(Oc4ccc5c(c4)CC(=O)N5)c3)cc2C(F)(F)F)CC1.Cl.Cl measured_result=-0.3
compound="CC(=O)N1CCC(c2ccc(C(=O)NC3=NCCN3)cc2C(F)(F)F)CC1 [BI 0054]" measured_result=0.6
compound=CCN1C(=O)c2cc(C)ccc2N(C)c2ncccc21 measured_result=0.32
compound=Cc1cn([C@@H](C)CC#N)c(=O)c2cc(Cn3nc(C(F)F)cc3Cl)nn12 measured_result=0.72
compound=CC(C)Oc1ccc(-c2cnc3c(-c4ccnc5ccccc45)cnn3c2)cc1 measured_result=-0.46
compound="Cc1cc([N+](=O)[O-])c(NS(=O)(=O)c2cccc(C(=O)O)c2)cc1-c1cccnc1 [ALOFANIB]" measured_result=0.91
compound="O=C(Nc1cccc(Nc2nccc(Nc3cccc(C(F)(F)F)c3)n2)c1)C1CC1 [ANILINOPYRIMIDINE1]" measured_result=-0.71
compound=CNC(=O)c1c[nH]c2ccc(Nc3nccc(-c4ccccn4)n3)cc12 measured_result=0.33

====

- System: Fibroblast
- Procedure summary: Incucyte cell viability with human fibroblast; also: unitless GR value; below 1 slowed growth and below 0 cell loss
- Assay type: toxicity, cell-based
- Condition summary: 24 h, 10 µM, compound concentration 10 uM, replicate number 1
Observable: Growth Rate

compound="CCNc1ccc(-c2nn(-c3ccccc3C)c3c2C(C)Cc2nc(NC(=O)OC)sc2-3)cn1.O=C(O)C(F)(F)F (centres undefined)" observable="Growth Rate" measured_result=-0.11
compound=CC(C)(C)c1cc(NC(=O)c2csc(Nc3ccccn3)n2)no1 observable="Growth Rate" measured_result=0.31
compound=Cc1cc(O)c(-c2ccc([C@@H](C)CN(C)C)cc2)c2c1[nH]c(=O)c1sccc12 observable="Growth Rate" measured_result=0.28
compound=N#Cc1ccc(C#CC[C@@H](C#N)NC(=O)[C@@H]2CCCCN2)cc1F observable="Growth Rate" measured_result=0.74
compound=CCOC(=O)c1c(/C(C#N)=C\N)c2ccc(Cl)c(Cl)c2n1C observable="Growth Rate" measured_result=0.75
compound=COc1cc(C(C)C)c(Oc2cnc(NC(CO)CO)nc2N)cc1I observable="Growth Rate" measured_result=1
compound=CC(C)N1CCN(Cc2cnc(-c3cc(-c4cccc5[nH]ccc45)cc4[nH]ncc34)o2)CC1 observable="Growth Rate" measured_result=0.3
compound=COCCNc1cc(NC(=O)N2CCCc3cc(CN4CCN(C)CC4=O)c(C=O)nc32)ncc1C#N observable="Growth Rate" measured_result=0.74
compound=CN1CCN(c2ccc(-n3cc(-c4ccncc4OCC4CCNCC4)cn3)cc2)CC1 observable="Growth Rate" measured_result=0.62

This collection of values is drawn from ChEMBL document CHEMBL5303304.
